I'd be grateful if you could share measured logD for these entries.
# EXPERIMENTAL_DETAILS: LogD determination: partition between 1-octanol and phosphate buffer pH 7.4
# output: bare number, no unit

logD for CCCC[C@H](NC(=O)CCOCCOCCOCCOCCNC(=O)CCCN1C(=O)CC(SC[C@H](NC(=O)[C@H](CCCC[n+]2c(C)cc(/C=C/c3ccc(N(C)C)cc3)cc2C)NC(=O)CC[C@H](C(=O)O)N2CCN(CC(=O)O)CCN(CC(=O)O)CC2)C(N)=O)C1=O)C(=O)N[C@H]1CC(=O)NCCCC[C@@H](C(N)=O)NC(=O)[C@H](Cc2c[nH]c3ccccc23)NC(=O)[C@H](CCCNC(=N)N)NC(=O)[C@@H](Cc2ccccc2)NC(=O)[C@H](Cc2c[nH]cn2)NC1=O (some centres unmarked) [7 b, Nle-c(DHfRWK)-pyrylium-NODA-GA] is -2.03

logD for CCCC[C@H](NC(=O)CCOCCOCCOCCOCCNC(=O)CCCN1C(=O)CC(SC[C@H](NC(=O)CNC(=O)CC[C@H](C(=O)O)N2CCN(CC(=O)O)CCN(CC(=O)O)CC2)C(N)=O)C1=O)C(=O)N[C@H]1CC(=O)NCCCC[C@@H](C(N)=O)NC(=O)[C@H](Cc2c[nH]c3ccccc23)NC(=O)[C@H](CCCNC(=N)N)NC(=O)[C@@H](Cc2ccccc2)NC(=O)[C@H](Cc2c[nH]cn2)NC1=O (some centres unmarked) [[^68Ga]Ga-10 b, metal not drawn] is -3.36
